assay: physchem
measured_property: chromatographic logP
Number, no unit, nothing else.

# input Which measured chromatographic logP value corresponds to `C/C(=N/O)c1nn(C(C)C)c2ccccc12` ?
# output 2.72

# input Which measured chromatographic logP value corresponds to `CCCn1nc(/C(C)=N\O)c2ccccc21` ?
# output 2.55

# input Which measured chromatographic logP value corresponds to `C/C(=N/O)c1cn(C(F)F)c2ccccc12` ?
# output 2.25

# input Which measured chromatographic logP value corresponds to `COc1ccc2c(/C(C)=N\O)nn(C)c2c1` ?
# output 1.76

# input Which measured chromatographic logP value corresponds to `C=CCn1nc(/C(C)=N\O)c2ccccc21` ?
# output 2.28

# input Which measured chromatographic logP value corresponds to `CCn1nc(/C(C)=N\O)c2ccccc21` ?
# output 2.13

# input Which measured chromatographic logP value corresponds to `COc1ccc2c(C(C)=O)nn(C)c2c1` ?
# output 1.99
